# RUN_DESCRIPTION: Trough plasma concentration at 12 hrs in HIV-negative human at 400 mg, po administered as single dose followed by 4 days wash out period followed by ritonavir dosing at 100 mg, po bid […] coadministered with compound at 400 mg, po on day 14
# Format: ADME, organism-based
# SETTINGS: read-out: Cmin
MEASURED_ENDPOINT: concentration at 12 h (nM)
Just the number please, in nM, no unit attached.

Query :: For the compound shown here, `Cc1nnc(C(=O)NC(C)(C)c2nc(C(=O)NCc3ccc(F)cc3)c(O)c(=O)n2C)o1` , give the reported concentration at 12 h.
Result :: 76.5
